tested on: A. niger ATCC 16404; details: ATCC 16404, 24 h
Ends that are not written are not given here.
Measurement name: MIC, A. niger ATCC 16404

A selection of reference data follows.
1) KKLIKVFAKGFKKAKKLFKGIG-NH2 [r-pexiganan] ... 32 µg/mL
2) FLPLIGRVLSGIL-NH2 [temporin A] ... 256 µg/mL
3) GIGKFLKKAKKFGKAFVKILKK-NH2 [pexiganan] ... 16 µg/mL
4) LGGIVSAVKKIVDFLG-NH2 [r-citropin 1.1] ... 256 µg/mL
5) FSEAIKKIIDFLG-NH2 [r-aurein 1.2] ... >256 µg/mL
6) GLFDVIKKVASVIGGL-NH2 [citropin 1.1] ... 64 µg/mL

Now consider the entry below.
Quick one: MIC, A. niger ATCC 16404 for LIGSLVRGILPLF-NH2 [r-temporin A] ? 256 µg/mL

###

Test system: S. pneumoniae ATCC 49619
Settings: ATCC 49619, 18 h
Procedure: The minimal inhibitory concentrations (MICs) for bacteria and fungi were determined by the broth microdilution method according to the Clinical and Laboratory Standards Institute (CLSI) protocol (Clinical and Laboratory Standards Institute (CLSI) [2002], [2012]). For this purpose, the initial inoculums of bacteria (5 × 10^5 CFU/mL) in Mueller–Hinton Broth (Biocorp, Warsaw, Poland) were exposed to the ranging concentrations of compounds (0.125–256 µg/mL) and incubated for 18 h at 37 °C. […]
Ends that are not written are not given here.
Flag rule - MIC, S. pneumoniae ATCC 49619 less than 30 µg/mL flags TRUE; the remaining entries get FALSE.

Below are worked cases with known answers.
1. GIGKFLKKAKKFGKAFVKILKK-NH2 [pexiganan] ... TRUE
2. ILRWPWWPWRRK-NH2 [omiganan] ... TRUE
3. FLPLIGRVLSGIL-NH2 [temporin A] ... FALSE
4. LIGSLVRGILPLF-NH2 [r-temporin A] ... FALSE
5. GLFDIIKKIAESF-NH2 [aurein 1.2] ... FALSE

Hello, I'm reviewing records and need to know if MIC, S. pneumoniae ATCC 49619 of LGGIVSAVKKIVDFLG-NH2 [r-citropin 1.1] is below 30 µg/mL. Could you check? FALSE

Now consider GLFDVIKKVASVIGGL-NH2 [citropin 1.1] . FALSE

Now consider FSEAIKKIIDFLG-NH2 [r-aurein 1.2] . FALSE

Now consider KKLIKVFAKGFKKAKKLFKGIG-NH2 [r-pexiganan] . TRUE

###

test system: K. pneumoniae ATCC 700603; settings: ATCC 700603, 18 h
Ends that are not written are not given here.
Flag rule - MIC, K. pneumoniae ATCC 700603 less than 100 µg/mL flags 1.0; the remaining entries get 0.0.

Hello, I'm reviewing records and need to know if MIC, K. pneumoniae ATCC 700603 of KKLIKVFAKGFKKAKKLFKGIG-NH2 [r-pexiganan] is below 100 µg/mL. Could you check? 1.0

Now consider FLPLIGRVLSGIL-NH2 [temporin A] . 0.0

Now consider FSEAIKKIIDFLG-NH2 [r-aurein 1.2] . 0.0

###

Kindly state MIC, K. pneumoniae ATCC 700603 for each of the entries shown.
system: K. pneumoniae ATCC 700603; conditions: ATCC 700603, 18 h
Ends that are not written are not given here.
One number for each entry, in µg/mL.

A selection of reference data follows.
1. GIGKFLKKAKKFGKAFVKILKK-NH2 [pexiganan] ... 1
2. GLFDVIKKVASVIGGL-NH2 [citropin 1.1] ... 16
3. LGGIVSAVKKIVDFLG-NH2 [r-citropin 1.1] ... 32

Now consider the entry below.
Quick one: MIC, K. pneumoniae ATCC 700603 for LIGSLVRGILPLF-NH2 [r-temporin A] ? 128
